In this section we review reported binary diffusion coefficient values for a set of molecules.
Experiment: xn = mol fraction of the nth substance listed
Details: 298.2 K; 100 kPa; Liquid; Taylor dispersion method; x1 = 0
parameter_measured: binary diffusion coefficient (m2/s)

| molecule | parameter_measured | numeric_readout |
| --- | --- | --- |
| O=C[C@H](O)[C@@H](O)[C@H](O)[C@H](O)CO [D-glucose] + O | binary diffusion coefficient | 6.76e-10 |
| O=C[C@H](O)[C@@H](O)[C@H](O)CO [D-xylose] + O | binary diffusion coefficient | 7.69e-10 |
| OC[C@H]1O[C@@](CO)(O[C@H]2O[C@H](CO)[C@@H](O)[C@H](O)[C@H]2O)[C@@H](O)[C@@H]1O [D-sucrose] + O | binary diffusion coefficient | 5.46e-10 |
| O=C[C@H](O)[C@@H](O)[C@@H](O)[C@H](O)CO [(+)-galactose] + O | binary diffusion coefficient | 7.06e-10 |
| O=C[C@@H](O)[C@H](O)[C@H](O)CO [D-(-)-arabinose] + O | binary diffusion coefficient | 7.73e-10 |
| O=C[C@@H](O)[C@@H](O)[C@H](O)[C@H](O)CO [D-mannose] + O | binary diffusion coefficient | 7.04e-10 |

* * *

In this section we review reported binary diffusion coefficient values for a set of compounds.
Assay: xn = mol fraction of the nth substance listed
Details: 273.2 K; 100 kPa; Liquid; Taylor dispersion method; x1 = 0
parameter_measured: binary diffusion coefficient (m2/s)

| compound | numeric_readout |
| --- | --- |
| OC[C@H]1O[C@@](CO)(O[C@H]2O[C@H](CO)[C@@H](O)[C@H](O)[C@H]2O)[C@@H](O)[C@@H]1O [D-sucrose] + O | 2.55e-10 |
| O=C[C@H](O)[C@@H](O)[C@H](O)CO [D-xylose] + O | 3.48e-10 |
| O=C[C@@H](O)[C@H](O)[C@H](O)CO [D-(-)-arabinose] + O | 3.59e-10 |
| O=C[C@H](O)[C@@H](O)[C@H](O)[C@H](O)CO [D-glucose] + O | 3.23e-10 |
| O=C[C@@H](O)[C@@H](O)[C@H](O)[C@H](O)CO [D-mannose] + O | 3.34e-10 |
| O=C[C@H](O)[C@@H](O)[C@@H](O)[C@H](O)CO [(+)-galactose] + O | 3.19e-10 |

* * *

Assay: xn = mol fraction of the nth substance listed
Settings: 333.2 K; 100 kPa; Liquid; Taylor dispersion method; x1 = 0

| molecule | binary diffusion coefficient |
| --- | --- |
| O=C[C@H](O)[C@@H](O)[C@H](O)[C@H](O)CO [D-glucose] + O | 1.49e-09 m2/s |
| O=C[C@H](O)[C@@H](O)[C@@H](O)[C@H](O)CO [(+)-galactose] + O | 1.51e-09 m2/s |
| OC[C@H]1O[C@@](CO)(O[C@H]2O[C@H](CO)[C@@H](O)[C@H](O)[C@H]2O)[C@@H](O)[C@@H]1O [D-sucrose] + O | 1.17e-09 m2/s |
| O=C[C@@H](O)[C@H](O)[C@H](O)CO [D-(-)-arabinose] + O | 1.67e-09 m2/s |
| O=C[C@H](O)[C@@H](O)[C@H](O)CO [D-xylose] + O | 1.64e-09 m2/s |
| O=C[C@@H](O)[C@@H](O)[C@H](O)[C@H](O)CO [D-mannose] + O | 1.59e-09 m2/s |

All figures here come from the NIST ThermoML archive (doi:10.1021/je0601816).
